Experimental System: Acetylcholinesterase (Homo sapiens, UniProt P22303)
Sequence (P22303 whole entry): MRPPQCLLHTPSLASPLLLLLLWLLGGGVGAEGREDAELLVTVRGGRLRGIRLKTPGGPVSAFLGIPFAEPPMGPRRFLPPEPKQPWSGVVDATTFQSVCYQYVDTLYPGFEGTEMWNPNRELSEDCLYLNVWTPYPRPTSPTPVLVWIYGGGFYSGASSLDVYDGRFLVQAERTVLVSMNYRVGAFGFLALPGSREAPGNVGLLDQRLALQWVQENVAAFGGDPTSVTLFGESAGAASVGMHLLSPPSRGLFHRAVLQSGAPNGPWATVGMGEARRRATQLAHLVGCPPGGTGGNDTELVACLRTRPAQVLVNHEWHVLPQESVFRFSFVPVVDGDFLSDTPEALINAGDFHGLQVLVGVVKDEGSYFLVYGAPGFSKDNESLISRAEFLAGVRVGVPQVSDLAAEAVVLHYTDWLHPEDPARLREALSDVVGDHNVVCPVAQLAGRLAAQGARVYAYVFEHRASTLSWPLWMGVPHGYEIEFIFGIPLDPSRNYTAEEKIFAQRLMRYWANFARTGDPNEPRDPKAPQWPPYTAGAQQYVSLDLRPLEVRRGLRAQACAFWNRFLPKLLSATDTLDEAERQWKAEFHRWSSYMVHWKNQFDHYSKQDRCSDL
Under this convention, t denotes IC50 strictly below 10 µM and f denotes IC50 at or above 10 µM.

Solved cases (9 shown):
>  <Compound>
CN1CCC(CCN2C(=O)c3ccc([N+](=O)[O-])cc3C2=O)CC1

>  <Class Name>
t

$$$$
>  <Compound>
c1ccc(-c2ccc(NCCN3CCc4ccccc4C3)nn2)cc1

>  <Class Name>
f

$$$$
>  <Compound>
Cc1cccc2n1cc(-c1ccc(OC(=O)N(C)C)cc1)[n+]2C

>  <Class Name>
t

$$$$
>  <Compound>
CC(=O)N(C)CCC1CCN(Cc2ccccc2)CC1

>  <Class Name>
t

$$$$
>  <Compound>
c1ccc(-c2nnc(NCN3CCCCC3)s2)cc1

>  <Class Name>
f

$$$$
>  <Compound>
CCCCN1CCc2cc(C(=O)CCC3CCN(Cc4ccccc4)CC3)ccc21

>  <Class Name>
t

$$$$
>  <Compound>
O=C1c2ccccc2CCCC1CC1CCN(c2ccccc2)CC1 (stereo unspecified)

>  <Class Name>
f

$$$$
>  <Compound>
CC12CCC(c3c1nc1ccccc1c3N)C2(C)C (stereo unspecified)

>  <Class Name>
f

$$$$
>  <Compound>
Cc1cccc2n1cc(-c1cccc(OC(=O)N(C)C)c1)[n+]2C

>  <Class Name>
f

$$$$

Please let me know if "c1ccc(CN2CCC(CNc3n[nH]c4ccccc34)CC2)cc1" shows IC50 below 10 µM.
t
